# Tested on: U251 CNS
# protocol.text: NCI tumour cell line growth inhibition, 48 h; in the data active = GI50 below about 0.43 µM; inactive = the rest
Returns: one label drawn from active, inactive

Check out these entries, answers already filled in.
compound	target.or.system	classification
C=C1CC/C=C(\C)CC[C@H](C(=C)C)[C@@H](O)/C=C(/CO)CCC1O (some centres not stated)	U251 CNS	inactive
COc1cc2cc3c(c(O)c2c(O)c1-c1c(OC)cc2cc4c(c(O)c2c1O)C(=O)O[C@H](C)C4)C(=O)O[C@H](C)C3	U251 CNS	inactive
CC1(C)CC[C@]2(C(=O)O)CC[C@]3(C)C(=CC[C@@H]4[C@@]5(C)C/C(=C/c6ccco6)C(=O)C(C)(C)[C@@H]5CC[C@]43C)[C@@H]2C1	U251 CNS	inactive
COc1ccc(/C=C/C(C)=N/OCC(=O)Nc2ccc(Cl)cc2)cc1	U251 CNS	inactive
O=C(OC[C@@H]1CO1)c1cccc2c(=O)c3ccccc3[nH]c12	U251 CNS	active

Now look at this one.
What call does the record list for `COc1cc(/C=C\c2cc(OC)c(OC)c(OC)c2)cc(NS(=O)(=O)c2ccc(Cl)cc2)c1OC` ? inactive

---

# Test system: SK-MEL-5 melanoma
# protocol.text: NCI tumour cell line growth inhibition, 48 h; in the data active = GI50 below about 0.43 µM; inactive = the rest
Select the correct class. Options are Yes = active, No = inactive and nothing else.

compound	classification
Cc1cc(Nc2ccc(Cl)cc2)nc(NCCCNc2ccnc3cc(Cl)ccc23)n1	No
COc1ccc(/C=C\c2cc(OC)c(OC)c(OC)c2)c(NS(=O)(=O)c2ccc(C(C)(C)C)cc2)c1O	Yes
COc1ccc(/C=C/C(C)=N/OCC(=O)Nc2ccc(Cl)cc2)cc1	No

Per the assay record, what outcome was assigned to `N/C(=N\C(N)=N\c1nc2ccccc2s1)c1cnccn1` ? No

Test call for this compound, please: `CC(=O)[O-].[Mn+3].[O-]c1ccc(Cl)cc1C=NCCN=Cc1cc(Cl)ccc1[O-]` No

Please share the test call associated with `C#CC#CC#CC#CC#CC#CC#CC#CC[C@@H]1OC[C@@H](COC(=O)O[C@@H](C(=O)O[C@H]2C[C@@]3(O)[C@@H](OC(=O)c4ccccc4)[C@@H]4[C@]5(OC(C)=O)CO[C@@H]5C[C@H](O)[C@@]4(C)C(=O)[C@H](OC(C)=O)C(=C2C)C3(C)C)[C@@H](NC(=O)c2ccccc2)c2ccccc2)O1` . No

Answer briefly: the call reported for `COc1cc(/C=C2\C(=O)N(C)c3ccccc32)cc(OC)c1OC` in this assay. No

Recorded call for `N#CCC1(n2cc(-c3ncnc4[nH]ccc34)cn2)CN(C2CCN(C(=O)c3ccnc(C(F)(F)F)c3F)CC2)C1` ? No

Please share the test call associated with C=C1CC/C=C(\C)CC[C@H](C(=C)C)[C@@H](O)/C=C(/CO)CCC1O (stereo partly drawn) . No

How was O=C1CCS/C(=N/S(=O)(=O)c2ccc(N3N=C4c5ccccc5CC4C3c3cccs3)cc2)N1Cc1ccccc1 (stereo not drawn) classified in this test? No

Outcome logged for `COC(=O)[C@H](Cc1cn(C)cn1)NC(=O)[C@@H](NC(=O)Nc1cc(C(F)(F)F)cc(C(F)(F)F)c1)C(C)C` in this assay: No

Lab log entry: CCCCCCCCCCCCOC1C(C(CC(=O)N2CCN(Cc3ccc4c(c3)OCO4)CC2)NS(=O)(=O)c2cc(Cl)cc(Cl)c2)OC2OC(C)(C)OC21 (stereo not drawn) — outcome as called in the assay? No

Please let me know the test result on file for `C=C(Cl)[C@@](Cl)(CBr)CC[C@@H](Br)C(C)(C)Cl` . No

Outcome logged for `CNCc1ccc(-c2[nH]c3cc(F)cc4c3c2CCNC4=O)cc1` in this assay: No

Call for entry `Oc1ccccc1C=Nc1nc(OCc2ccccc2)nc2[nH]ncc12` : No

---

# Test system: 786-0 renal
# protocol.text: NCI tumour cell line growth inhibition, 48 h; in the data active = GI50 below about 0.43 µM; inactive = the rest
The categories you may choose from are active, inactive

molecule	classification
COc1c(O)c2c3c(c1OC)-c1ccccc1CC3N(S(=O)(=O)c1ccc(C)cc1)CC2 (stereo not drawn)	inactive

Proceed to the following item.
What did this assay record as the result for `C#CC#CC#CC#CC#CC#CC#CC#CC[C@@H]1OC[C@@H](COC(=O)O[C@@H](C(=O)O[C@H]2C[C@@]3(O)[C@@H](OC(=O)c4ccccc4)[C@@H]4[C@]5(OC(C)=O)CO[C@@H]5C[C@H](O)[C@@]4(C)C(=O)[C@H](OC(C)=O)C(=C2C)C3(C)C)[C@@H](NC(=O)c2ccccc2)c2ccccc2)O1` ? inactive

---

Known TGI of a selection of molecules
# System: HT29 colon
# protocol.text: NCI tumour cell line growth inhibition, 48 h

These recorded examples may help you get a feel for the data.
molecule	TGI
CCOC(=O)c1cn(CC)c2ccc3c(c2c1=O)S(=O)(=O)C=C3	> 100 µM
O=C(/C(=C/c1ccc(O)cc1)c1ccccc1)c1ccccc1	32.1 µM
N#CCC1(n2cc(-c3ncnc4[nH]ccc34)cn2)CN(C2CCN(C(=O)c3ccnc(C(F)(F)F)c3F)CC2)C1	> 100 µM
O=C(O)Cn1ccc(=O)c2cc([N+](=O)[O-])ccc21	> 100 µM
CN(C)c1ccc(C2CC(C)(O)Oc3cc4c(cc32)OCO4)cc1 (stereo not drawn)	76.1 µM
CCc1cc2c(c3c1CCCC3=O)CC1(C2)Cc2cc(CC)c3c(c2C1)C(=O)CCC3	> 100 µM
O=C1CCS/C(=N/S(=O)(=O)c2ccc(N3N=C4c5ccccc5CC4C3c3cccs3)cc2)N1Cc1ccccc1 (stereo not drawn)	> 100 µM
[Cl-].[Gd+3].[O-]/N=C(\c1ccccc1)c1ccccn1.[O-]/N=C(\c1ccccc1)c1ccccn1.[O-]/N=C(\c1ccccc1)c1ccccn1	> 100 µM
COc1cccc(C2C(C#N)=C(N)Oc3cc4c(cc32)OCO4)c1 (stereo not drawn)	2.42 µM
O=c1[nH]c2ccc([N+](=O)[O-])c(Cl)c2c2ccccc12	10.6 µM

Could you share which TGI value was measured for `COc1cc(OC)cc(-c2ccc(-c3ccc(C(=N)N)cn3)s2)c1` ? 4.89 µM

Look up TGI for this molecule: `O=C(CC1=Nc2nnc(-c3nnc4n3C(=O)C(CC(=O)C3CC3)=N4)n2C1=O)C1CC1` > 100 µM

---

# Tested on: MALME-3M melanoma
# protocol.text: NCI tumour cell line growth inhibition, 48 h
experimental.readout: log10 of TGI (log10 of the value in µM)
Transform log10 | Measure TGI | Unit µM

compound	target.or.system	log10 of TGI
O=C(OC[C@@H]1CO1)c1cccc2c(=O)c3ccccc3[nH]c12	MALME-3M melanoma	0.25
N#CC(NNC(=O)c1ccccc1O)c1c(O)ccc2ccccc12 (configuration not stated)	MALME-3M melanoma	1.44
c1ccc(-c2c(-c3[nH]c4ccccc4c3-c3ccccc3)[nH]c3ccccc23)cc1	MALME-3M melanoma	1.49
O=C(c1ccccc1)C(Br)C(Br)c1ccccc1 (configuration not stated)	MALME-3M melanoma	0.63
CC1CCCN1CCCOC(=O)c1ccc(OC2C=CCCC2)cc1 (configuration not stated)	MALME-3M melanoma	1.54

Suppose we examine the compound `COc1ccc(N=Nc2c(N)nn3c(SC)c(C#N)c(N)nc23)cc1` ; what log10 of TGI value has been reported? 1.50

Sample `Clc1ccc2c(NCCCN3CCN(c4nc(N5CCOCC5)nc5ccccc45)CC3)ccnc2c1` — what was its log10 of TGI? 0.54

Please report the recorded log10 of TGI for `O=C(Nc1ccc(C(F)(F)F)cc1[N+](=O)[O-])c1cccnc1` . 0.92

---

# Tested on: COLO 205 colon
# protocol.text: NCI tumour cell line growth inhibition, 48 h
Below is a list of entries, each paired with its recorded TGI value.

Fill in: TGI of `Fc1ccc(-c2nn3c(COc4ccc(Cl)cc4)nnc3s2)cc1Oc1ccccc1` is ___ > 61.8 µM

Which TGI is listed for `O=c1c2cc(I)ccc2nc(-c2cccs2)n1O` ? > 100 µM

Looking for the measured TGI of `Nc1nc(=S)[nH]c(C(=O)Nc2nccs2)c1-c1ccccc1` , can you help? > 100 µM

Reported TGI, molecule `CC(=O)O[C@H]1C(=O)[C@@]2(C)[C@H]([C@H](OC(=O)c3ccco3)[C@]3(O)C[C@H](OC(=O)[C@H](O)[C@@H](NC(=O)c4ccccc4)c4ccccc4)C(C)=C1C3(C)C)[C@]1(OC(C)=O)CO[C@@H]1C[C@@H]2O` : ____ > 5.82 µM

Would you kindly share the measured TGI for `COc1ccc(N=Nc2c(N)nn3c(SC)c(C#N)c(N)nc23)cc1` ? 26.4 µM

Request the reported TGI associated with `O=C(O)/C=C/c1ccncc1` > 100 µM

---

# Test system: 786-0 renal
# protocol.text: NCI tumour cell line growth inhibition, 48 h
Documented TGI across a set of compounds

The examples below pair each entry with its known result.
compound	TGI
COc1cc([C@@H]2Oc3cc4oc(-c5ccccc5)cc(=O)c4c(O)c3O[C@H]2OC)ccc1O	20.8 µM
C=CCN=C(N/N=C/c1ccc([N+](=O)[O-])o1)NS(=O)(=O)c1cc(C(=O)Nc2ccccc2)c(Cl)cc1SCC(N)=O	> 100 µM
O=C(O)Cn1ccc(=O)c2cc([N+](=O)[O-])ccc21	> 100 µM
CC(C)=CCc1c2c(c(O)c3c(=O)c4c(oc13)-c1ccc(O)cc1OC4C=C(C)C)C=CC(C)(C)O2 (stereo not given)	23.9 µM
O=C(O)CCC1NC(/C(=C/c2ccccc2O)NC(=O)c2ccccc2)OC1=O (stereo not given)	> 100 µM

What value of measured TGI is listed for `N/C(=N\C(N)=N\c1nc2ccccc2s1)c1cnccn1` ? > 100 µM
